System: A549 (non-small lung cancer) cell line
assay_protocol: MTT cytotoxicity assay, A549 cells
Assay type: cell-based, human
experimental_context: Homo sapiens, A549, 72 h, read-out: IC50, A549
endpoint_label: IC50 (µM)

O=C1OCC2=C1C1(C(=O)N(Cc3ccc(C(F)(F)F)cc3)c3ccc(Cl)cc31)C1=C(N2)C(=O)c2ccccc2C1=O (stereo not shown) [Compound 7l]; 5.93
O=C1OCC2=C1C1(C(=O)N(Cc3ccc(Cl)cc3)c3ccccc31)C1=C(N2)C(=O)c2ccccc2C1=O (stereo not shown) [Compound 7j]; 6.54
O=C1OCC2=C1C1(C(=O)N(Cc3ccc(C(F)(F)F)cc3)c3cc(Br)c(Br)cc31)C1=C(N2)C(=O)c2ccccc2C1=O (stereo not shown) [Compound 7n]; 1.03
Cc1ccc2c(c1)N(Cc1ccc(Br)cc1F)C(=O)C21C2=C(COC2=O)NC2=C1C(=O)c1ccccc1C2=O (stereo not shown) [Compound 7m]; 13.3

Data origin: paper PMC11774189
